Ref: patent US20100255099A1

# protocolDetails: Pharmacokinetic study in beagle dogs
# Format: in vivo
# conditionParameters: dog, plasma; IV aqueous solution, dose 4.2 mg, male beagle dogs; read-out: F (bioavailability)
propertyLabel: bioavailability

compound | recordedValue
O=C(O)[C@H]1/C(=C/CO)O[C@@H]2CC(=O)N21 [potassium clavulanate] | 100%

* * *

# protocolDetails: Pharmacokinetic study in beagle dogs
# Format: in vivo
# conditionParameters: male, beagle, dog, plasma, po; given orally, fasted animals; read-out: average bioavailability

compound | bioavailability
O=C(O)[C@H]1/C(=C/CO)O[C@@H]2CC(=O)N21 [potassium clavulanate] | 30 to 41%

* * *

# protocolDetails: Pharmacokinetic study in beagle dogs
# Type: in vivo
# conditionParameters: dog, plasma; IV aqueous solution, dose 4.2 mg, male beagle dogs
# Protocol: The amount of clavulanate in the plasma of beagle dogs was measured by LC/MS/MS method. The chromatographic separation of the analytes was performed on a reverse-phase PLRP-S polymeric column. […] The mass spectral data were analyzed by Analyst 1.4.1 (Applied Biosystems). […] Three male Beagle dogs were used throughout the study in a cross-over design with washout period between treatments. […] Plasma was obtained via centrifugation at 3,000 rpm for 10 min and analyzed by an LC-MS/MS system. […]

molecule | AUC(0-t) / ng·h/mL
O=C(O)[C@H]1/C(=C/CO)O[C@@H]2CC(=O)N21 [potassium clavulanate] | 684
